src = PubChem BioAssay AID588342

- TARGET OR SYSTEM: Luciferin 4-monooxygenase (Photinus pyralis)
- RUN DESCRIPTION: qHTS profiling assay for firefly luciferase inhibitor/activator using purifed enzyme and Km concentrations of substrates (counterscreen for miR-21 project); also: nearly all actives have a fitted effect of over 55% in size
- TEST PARAMETERS: purified FLuc, luminescence inhibition; series mostly up to 57.5 µM
In all, about 360,000 compounds went through this assay and about 25,000 (6.9%) were called active. Roughly 9% stayed inconclusive and do not appear here. Calls follow the shape of the dose curve; as a rule, active = well fitted inhibition curve with a large enough effect; inconclusive = small, poorly fitted or top-dose-only effect; inactive = flat fitted curve, though single readings scatter. The sample as a whole holds a higher share of actives than the screen did.
Outcome codes: yes for active, no for inactive

- COMPOUND: "Cc1ccc(NC(=O)COC(=O)CN2CCCCCC2=O)c(C)c1"
  CATEGORY LABEL: "no"
- COMPOUND: "CN(C(=O)Cn1nnc(-c2ccc(F)cc2)n1)C1CCS(=O)(=O)C1 (stereo unspecified)"
  CATEGORY LABEL: "no"
- COMPOUND: "CCCN1CN=C(NS(=O)(=O)c2ccc(NC(C)=O)cc2)NC1"
  CATEGORY LABEL: "no"
- COMPOUND: "NC(=O)Cc1ccc2c(c1)[nH]c1ccccc12"
  CATEGORY LABEL: "no"
- COMPOUND: "COc1ccc(C)cc1N(C)C(=O)c1c(C)oc2ncnc(N3CCOCC3)c12"
  CATEGORY LABEL: "no"
- COMPOUND: "CCn1c2ccccc2c2cc(CC(N)=O)ccc21"
  CATEGORY LABEL: "no"
- COMPOUND: "COc1ccccc1N1CCN(C2C(=O)c3ccccc3N2C(C)=O)CC1 (stereo unspecified)"
  CATEGORY LABEL: "no"
- COMPOUND: "COc1ccccc1NC(=O)CSc1oc(-c2ccco2)nc1S(=O)(=O)c1ccc(Br)cc1"
  CATEGORY LABEL: "no"
- COMPOUND: "Cc1c(-c2nsc(NC(=O)c3cccc(Cl)c3)n2)nnn1-c1ccccc1C(F)(F)F"
  CATEGORY LABEL: "yes"
- COMPOUND: "COc1ccccc1N1CCN(C(=O)C(=O)N/N=C/c2ccccc2F)CC1"
  CATEGORY LABEL: "no"
- COMPOUND: "COc1ccc(-n2nnc(-c3nsc(NC(=O)c4ccc(C)c(C)c4)n3)c2C)cc1Cl"
  CATEGORY LABEL: "no"

* * *

- TARGET OR SYSTEM: Luciferin 4-monooxygenase (Photinus pyralis) (UniProt P08659)
- Sequence (P08659 whole entry, looked up): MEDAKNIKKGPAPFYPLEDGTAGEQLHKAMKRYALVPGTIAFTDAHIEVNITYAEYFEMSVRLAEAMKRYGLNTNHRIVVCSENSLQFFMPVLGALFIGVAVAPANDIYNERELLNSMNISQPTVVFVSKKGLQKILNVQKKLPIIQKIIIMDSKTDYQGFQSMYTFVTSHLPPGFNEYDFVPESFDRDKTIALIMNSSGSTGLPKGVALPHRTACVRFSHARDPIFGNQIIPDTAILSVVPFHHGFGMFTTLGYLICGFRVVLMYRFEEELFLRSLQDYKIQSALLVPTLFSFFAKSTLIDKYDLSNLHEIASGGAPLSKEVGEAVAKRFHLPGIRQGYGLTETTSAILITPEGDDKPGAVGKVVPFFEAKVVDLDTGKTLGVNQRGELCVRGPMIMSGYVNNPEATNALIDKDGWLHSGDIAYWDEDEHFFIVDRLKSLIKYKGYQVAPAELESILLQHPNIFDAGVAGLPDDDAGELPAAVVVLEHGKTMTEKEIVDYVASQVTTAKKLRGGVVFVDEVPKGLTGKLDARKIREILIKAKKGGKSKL
- RUN DESCRIPTION: qHTS profiling assay for firefly luciferase inhibitor/activator using purifed enzyme and Km concentrations of substrates (counterscreen for miR-21 project); also: nearly all actives have a fitted effect of over 55% in size; also: potency is read from the fitted curve at half-maximal effect
- TEST PARAMETERS: purified FLuc, luminescence inhibition; series mostly up to 57.5 µM
About 25,000 (6.9%) of roughly 360,000 compounds were called active. Inconclusive results (about 9%) are left out. The full list was thinned out, with actives kept by preference.
REPORTED ENDPOINT: Potency

- SMILES INPUT: "CCOc1ccc(NC(=O)c2ncoc2-c2ccco2)cc1"
  TEST RESULT: "7.57 µM (active)"
- SMILES INPUT: "Cc1ccc(S(=O)(=O)N2CCCCC2)cc1NC(=O)[C@@H]1CCCN1C(=O)c1cccs1"
  TEST RESULT: "inactive"
- SMILES INPUT: "CCOc1ccc(N(C)S(=O)(=O)c2cc(-c3cnc(C)o3)ccc2OC)cc1"
  TEST RESULT: "inactive"
- SMILES INPUT: "N#Cc1ccc(OCc2nnc(-c3ccc([N+](=O)[O-])cc3)o2)cc1"
  TEST RESULT: "inactive"
- SMILES INPUT: "COc1ccc(-c2ocnc2C(=O)Nc2ccc3c(c2)CCC3)cc1"
  TEST RESULT: "7.57 µM (active)"
